In this section we review reported melting point values for a set of molecules.

Here's what some known entries look like.
chemical.structure | melting point
Cc1ccc(-n2cnc(-c3cccc(C(=O)O)c3)n2)cc1Cl | 269 to 272 °C
O=C(O)c1ccc(-c2cnn(-c3ccc(F)cc3)c2)cc1 | 266 to 268 °C
O=C(O)c1ccc(-c2ccn(-c3cc(F)cc(F)c3)c2)cc1 | 243 to 245 °C
O=C(O)c1cccc(-c2ncn(-c3ccccc3)n2)c1 | 257 to 259 °C
O=C(O)c1ccc(-c2ccn(-c3cc(F)ccc3F)c2)cc1 | 215 to 218 °C
O=C(O)c1cccc(-n2ccc(-c3ccc(OC(F)(F)F)cc3)n2)c1 | 191 to 194 °C

Assign melting point to the following record: COc1ccc2c(c1)-c1cnn(-c3cccc(C(=O)O)c3)c1CC2
269 to 271 °C

Please list melting point recorded for the molecule O=C(O)c1ccc(-n2cc(-c3ccc(F)cc3F)cn2)cc1
291 to 293 °C

Quick one: give measured melting point for O=C(O)c1ccc(-n2cc(-c3ccccn3)cn2)cc1
260 to 262 °C

---

property.measured: melting point

Read the entry O=C(O)c1cccc(-c2ncn(-c3ccccc3Br)n2)c1 [Compound 30] and write its reported melting point.
245 to 247 °C

Fill in melting point for record COc1ccc(-n2ccc(-c3cccc(C#N)c3)n2)cc1 [Compound 58]
110 to 112 °C

Specify measured melting point for O=C(O)c1cccc(-c2ccn(-c3ccc(Cl)cc3)c2)c1 [Compound 155] .
211 to 213 °C

---

melting point listing for selected molecules.

Use these answered entries as a reference point.
chemical.structure | result
Cc1ccc(-n2cc(-c3cccc(C(=O)O)c3)cn2)cc1C | 196 to 197 °C
COc1ccc(-c2ccn(-c3ccc(C(=O)O)cc3)n2)cc1 | 268 to 270 °C

Consider now this further molecule.
Please give the documented melting point of O=C(O)c1cccc(-c2cnn(-c3ccc(OC(F)(F)F)cc3)c2)c1
213 to 215 °C

---

Listed below: melting point values for each entry.

molecule | melting point
O=C(O)c1ccc(-n2cc(-c3cccc(Br)c3)cn2)cc1 [Compound 89] | 247 to 248 °C
Cc1ccc(-c2cn(-c3ccc(C(=O)O)cc3)nn2)cc1 [Compound 201] | 302 to 303 °C
Cc1ccc(-n2ccc(-c3cccc(C(=O)O)c3)n2)cc1 [Compound 166] | 192 to 193 °C
CC(C)c1ccc(-n2cnc(-c3cccc(C(=O)O)c3)n2)cc1 [Compound 15] | 173 to 175 °C
O=C(O)c1cccc(-c2ccn(-c3ccc(F)c(F)c3)n2)c1 [Compound 68] | 240 to 244 °C

Turning now to a further molecule:
Could you please provide reported melting point for O=C(O)c1ccc(-c2ccn(-c3ccc(OC(F)(F)F)cc3)n2)cc1 [Compound 218] ? Thanks!
214 to 215 °C

---

Counter-ions that a name gives are not always drawn.
property.measured: melting point

Example cases with answers are listed next.
compound | result
O=C(O)c1cccc(-c2ccn(-c3ccc(C(F)(F)F)cc3)c2)c1 (as salt: sodium) | 224 to 226 °C
COc1cccc(-n2cnc(-c3ccc(C(=O)O)cc3)n2)c1 | 203 to 205 °C

Give the reported value of melting point for this record: CN(C)c1cccc(-n2ccc(-c3cccc(C(=O)O)c3)n2)c1
180 to 183 °C

Provenance of the data: patent US9051342B2
